- Measurement Description: NCI Yeast Anticancer Drug Screen. Data for the cln2 rad14 strain (AID 165);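 further: 0% = growth equal to vehicle treated cultures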
- Applied Conditions: S. cerevisiae cln2 rad14 strain, at 50.0 µM
This is part of a sample that, as a whole, favours compounds with a hit. Of some 79,000 tested, about 15% had one in any assay. The source made the active and inactive calls. No stated cut-off is given here; in the data, active means growth inhibition above about 70%; inactive means the rest.
Pick one and only one: True (active), False (inactive)

The examples below pair each entry with its known result.
{"Compound": "N#CC(C(=O)CCc1nc2ccccc2[nH]1)c1c(Cl)cccc1Cl (stereo unspecified)", "Class": "False"}
{"Compound": "CC/C(C)=C1\\CCC(CN2CCOCC2)C1=O (stereo unspecified)", "Class": "False"}
{"Compound": "CCCCCCc1cc(C(=O)N/N=C\\c2cccc([N+](=O)[O-])c2)c2ccccc2n1", "Class": "False"}
{"Compound": "CS(=O)(=O)OCCN(CCOS(C)(=O)=O)c1ccc(C=Nc2ccc(-c3csc(-c4ccc(Br)cc4)n3)cc2)c(Cl)c1", "Class": "False"}
{"Compound": "CCC(C)(C)c1ccc(OC(=O)C(C)OC(C)=O)cc1 (stereo unspecified)", "Class": "False"}
{"Compound": "O=C(O)c1cc(-c2ccc3c(c2)Nc2ccccc2S3)nc2ccc(F)cc12", "Class": "True"}

Hi, sorry to bother you, what did the test record for Oc1ccc(C/C=C/c2ccccc2)cc1O ? True

Moving on to the next compound: O=C1c2ccccc2C2(O)c3cc4ccccc4cc3OC12O (stereo unspecified) False

Moving on to the next compound: CCCCCOCC(=O)OC False

Moving on to the next compound: Cc1cccc[n+]1CC(=O)c1cccc(O)c1 False

Moving on to the next compound: CCCC#CC(O)(C(=O)OC1CCN(C)CC1)C1CCCCC1 (stereo unspecified) False

###

- Measurement Description: NCI Yeast Anticancer Drug Screen. Data for the sgs1 mgt1 strain (AID 161);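 further: 0% = growth of cultures given vehicle only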
- Applied Conditions: S. cerevisiae sgs1 mgt1 strain, at 5.0 µM (retest, dose inferred, filed as 0.5), stronger effect = higher value
About 79,000 compounds went through this panel and 15% of them were active in at least one assay; those are over-represented in the sample as a whole.
Readings of growth inhibition for the listed compounds
Provide the reading as a plain figure in %.

Take a look at these entries with their results.
{"Compound": "O=C1c2ccccc2-c2cc([N+](=O)[O-])c([N+](=O)[O-])cc21", "Readout Name": "growth inhibition", "Experimental Value": 21}
{"Compound": "ClCCOCCOc1c(Cl)cc(Cl)c(Cl)c1Cl", "Readout Name": "growth inhibition", "Experimental Value": 9}
{"Compound": "Cc1ccc(N2C(=O)C(Cl)=C(Cl)C2=O)cc1", "Readout Name": "growth inhibition", "Experimental Value": 20}
{"Compound": "O=C(O)C(Cc1ccccc1)N=Cc1ccc(O)cc1 (configuration not stated)", "Readout Name": "growth inhibition", "Experimental Value": 79}
{"Compound": "NC(=O)CCSC(=S)N1CCOCC1", "Readout Name": "growth inhibition", "Experimental Value": -3}
{"Compound": "C1CCN(c2nc(N3CCOCC3)c3[nH]c(N4CCCCC4)nc3n2)CC1", "Readout Name": "growth inhibition", "Experimental Value": 2}
{"Compound": "CSc1nc(COC(=O)NC(C)C)c(COC(=O)NC(C)C)n1-c1ccccc1", "Readout Name": "growth inhibition", "Experimental Value": -19}
{"Compound": "Clc1ccccc1C(Cc1c(Cl)cccc1Cl)Cn1ccnc1 (configuration not stated)", "Readout Name": "growth inhibition", "Experimental Value": 70}

Please give the measured growth inhibition for this compound: OCCCNc1nc2c(Cl)cc(Cl)cc2c2ccccc12 8

Moving on to the next compound: Clc1ccc(C2=CC(c3ccccc3)N3C(=N[C@H]4CCCC[C@@H]43)N2)cc1 (some centres not stated) 6

Moving on to the next compound: CC1=CC(=O)CC(c2ccccc2)C1 (configuration not stated) 22

Moving on to the next compound: C1CCC(CC[N+]23CC[N+](CCC4CCCC4)(CC2)C3)C1 12

meta.source: PubChem BioAssay (NCI)
